Cited source for all entries: the supplement of paper PMC10567573

B1: SMARCE1 (parent)
chain: YHNSPAYLAYINAKSRAEAALEEE

- Variants of: B1
- protocolDetails: protein stability index of a GFP-peptide fusion (GPS, HEK-293T) (PSI 1-6); higher = more stable;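 note: lentivirally expressed fusions sorted by FACS into six bins by GFP to DsRed ratio, PSI derived from sequencing read proportions per bin multiplied by bin number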
- protocolConditions: c terminus: a fixed tail appended
valueType: protein stability index

>>> print(df.to_string())
   variantdesignation  result
0                E24T    2.17
1                A17V    2.19
2                K14P    1.95
3                A13N     1.9
